- Tested on: HEK-293T
- measurement protocol: Incucyte cell viability with HEK293T; further: unitless GR value; below 1 slowed growth and below 0 cell loss
- Assay type: toxicity, cell-based
- measurement context: human, 24 h, 10 µM, compound concentration 10 uM, replicate number 2, timepoint 24 hours
Mark Not met for Growth Rate values under 0.9, and Met for everything at or above.

Would you please look over these solved cases?
{"molecule": "O=C(NCCO)c1cccc(-c2cc(Nc3ccc(OC(F)(F)F)cc3)ncn2)c1", "target entity": "HEK-293T", "class label": "Not met"}
{"molecule": "COC[C@@H](CC(C)C)NC1=N/C(=C\\c2ccc3ncsc3c2)C(=O)N1C", "target entity": "HEK-293T", "class label": "Not met"}
{"molecule": "CC[C@H]1OC(=O)[C@H](C)[C@@H](O[C@H]2C[C@@](C)(OC)[C@@H](O)[C@H](C)O2)[C@H](C)[C@@H](O[C@@H]2O[C@H](C)C[C@H](N(C)C)[C@H]2O)[C@@]2(C)CC(C)=C(O2)[C@H](C)[C@@H](O)[C@]1(C)O", "target entity": "HEK-293T", "class label": "Not met"}
{"molecule": "CCC(=O)N1CC[C@H](Nc2ncnc3c2CN(c2cnc(OC)c(C(F)(F)F)c2)CC3)C1 [LENIOLISIB]", "target entity": "HEK-293T", "class label": "Not met"}
{"molecule": "N[C@@]1(C(=O)O)CC[C@H]2[C@H](C(=O)O)[C@H]21", "target entity": "HEK-293T", "class label": "Not met"}

q: Given CCOC(=O)c1c(/C(C#N)=C\N)c2ccc(Cl)c(Cl)c2n1C , state whether its Growth Rate is at least 0.9.
a: Met
